B1: CPEB3 Ribozyme (parent)
chain: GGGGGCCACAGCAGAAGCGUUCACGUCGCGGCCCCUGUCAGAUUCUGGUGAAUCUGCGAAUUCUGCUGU

Variants of: B1
ASSAY_TEXT: self-cleavage, relative activity (ratio to wild type); higher = more cleavage; co-transcriptional
What self-cleavage was measured for each of the following?

Supply reported self-cleavage belonging to this variant: GGGGGCCACAACAGAAGCGUUCACGUCGCGGCCCCUGUCAGAUUCUGGUGAAUCUGCGACUUCUGCUGU [G11A A60C]
0.205

Supply reported self-cleavage belonging to this variant: GGGGGCCACAGCAGAAGCCUUCACGUCGCGGCCCCUGUCAGAUUCUGAUGAAUCUGCGAAUUCUGCUGU [G19C G48A]
0.189

Supply reported self-cleavage belonging to this variant: GGGGGCCACAGCAGAAGCGUUCACGCCGCGGCCCCUGUCAGAUUCUGGUGAAUCUACGAAUUCUGCUGU [U26C G56A]
0.855

Supply reported self-cleavage belonging to this variant: GGGGGCCACAGCAGAAGCGUUCACGUCGCGGCCCCUGUCACAUUCUGGUGGAUCUGCGAAUUCUGCUGU [G41C A51G]
0.687

Supply reported self-cleavage belonging to this variant: GGGGGCCACAGUAGAAGCGUUCACGUCGCGGCCCCUGUCAAAUUCUGGUGAAUCUGCGAAUUCUGCUGU [C12U G41A]
0.716

Supply reported self-cleavage belonging to this variant: GGGGGCCACAGCAGAAGCGUUCACGUCGCGGCCCCUGUCAGAUUCUGGUGAAUCUUCGAAUUCUGGUGU [G56U C66G]
0.552

Supply reported self-cleavage belonging to this variant: GGGGGCCACAGCAGACGCGUUCACGUCGCGGCCCCUGUCAGAUUCUUGUGAAUCUGCGAAUUCUGCUGU [A16C G47U]
0.427

Supply reported self-cleavage belonging to this variant: GGGGGACACAGCAGAAGCGUUCACGUCGCGGCCCCUGUCAGAUUCUGAUGAAUCUGCGAAUUCUGCUGU [C6A G48A]
0.712
